Target or system: CD28 (Homo sapiens, UniProt P10747)
Protocol text: Flow binding to Jurkat/IL2 reporter cells (CD28)
Design: host or cells: Jurkat cells expressing an IL-2-luciferase reporter
Experimental setup: Table E23; MFI at 33.3 nM relative to CD80 WT IgV-Fc
Property: CD28 Fold change to WT CD80; scope: individual molecules
Output spec: single numeric token, no unit.

Molecule	CD28 Fold change to WT CD80
H18V/A26P/E35D/M47L/V68M/A71G (protein, UniProt P33681 35-288, looked up, variant H18V A26P E35D M47L V68M A71G) T-lymphocyte activation …: VIHVTKEVKEVATLSCGVNVSVEELPQTRIYWQKDKKMVLTMMSGDLNIWPEYKNRTIFDITNNLSIMILGLRPSDEGTYECVVLKYEKDAFKREHLAEVTLSVKADFPTPSISDFEIPTSNIRRIICSTSGGFPEPHLSWLENGEELNAINTTVSQDPETELYAVSSKLDFNMTTNHSFMCLIKYGHLRVNQTFNWNTTKQEHFPDNLLPSWAITLISVNGIFVICCLTYCFAPRCRERRRNERLRRESVRPV	24.0
H18V/A26Q/E35D/M47V/V68L/A71G/D90G (protein, UniProt P33681 35-288, looked up, variant H18V A26Q E35D M47V V68L A71G D90G) T-lymphocyte activation …: VIHVTKEVKEVATLSCGVNVSVEELQQTRIYWQKDKKMVLTMMSGDVNIWPEYKNRTIFDITNNLSILILGLRPSDEGTYECVVLKYEKGAFKREHLAEVTLSVKADFPTPSISDFEIPTSNIRRIICSTSGGFPEPHLSWLENGEELNAINTTVSQDPETELYAVSSKLDFNMTTNHSFMCLIKYGHLRVNQTFNWNTTKQEHFPDNLLPSWAITLISVNGIFVICCLTYCFAPRCRERRRNERLRRESVRPV	30.6
H18V/A26D/E35D/M47V/V68M/A71G/D90G (protein, UniProt P33681 35-288, looked up, variant H18V A26D E35D M47V V68M A71G D90G, Fc fusion) T-lymphocyte activation …: VIHVTKEVKEVATLSCGVNVSVEELDQTRIYWQKDKKMVLTMMSGDVNIWPEYKNRTIFDITNNLSIMILGLRPSDEGTYECVVLKYEKGAFKREHLAEVTLSVKADFPTPSISDFEIPTSNIRRIICSTSGGFPEPHLSWLENGEELNAINTTVSQDPETELYAVSSKLDFNMTTNHSFMCLIKYGHLRVNQTFNWNTTKQEHFPDNLLPSWAITLISVNGIFVICCLTYCFAPRCRERRRNERLRRESVRPV	61.3
H18L/A26N/D46E/V68M/A71G/D90G (protein, UniProt P33681 35-288, looked up, variant H18L A26N D46E V68M A71G D90G) T-lymphocyte activation …: VIHVTKEVKEVATLSCGLNVSVEELNQTRIYWQKEKKMVLTMMSGEMNIWPEYKNRTIFDITNNLSIMILGLRPSDEGTYECVVLKYEKGAFKREHLAEVTLSVKADFPTPSISDFEIPTSNIRRIICSTSGGFPEPHLSWLENGEELNAINTTVSQDPETELYAVSSKLDFNMTTNHSFMCLIKYGHLRVNQTFNWNTTKQEHFPDNLLPSWAITLISVNGIFVICCLTYCFAPRCRERRRNERLRRESVRPV	71.1
H18I/A26P/E35D/M47V/V68M/A71G (protein, UniProt P33681 35-288, looked up, variant H18I A26P E35D M47V V68M A71G) T-lymphocyte activation …: VIHVTKEVKEVATLSCGINVSVEELPQTRIYWQKDKKMVLTMMSGDVNIWPEYKNRTIFDITNNLSIMILGLRPSDEGTYECVVLKYEKDAFKREHLAEVTLSVKADFPTPSISDFEIPTSNIRRIICSTSGGFPEPHLSWLENGEELNAINTTVSQDPETELYAVSSKLDFNMTTNHSFMCLIKYGHLRVNQTFNWNTTKQEHFPDNLLPSWAITLISVNGIFVICCLTYCFAPRCRERRRNERLRRESVRPV	25.2

Read the next record carefully.
Look at this molecule and give its reported CD28 Fold change to WT CD80. H18F/A26N/E35D/M47V/V68M/A71G/D90K (protein, UniProt P33681 35-288, looked up, variant H18F A26N E35D M47V V68M A71G D90K) T-lymphocyte activation …: VIHVTKEVKEVATLSCGFNVSVEELNQTRIYWQKDKKMVLTMMSGDVNIWPEYKNRTIFDITNNLSIMILGLRPSDEGTYECVVLKYEKKAFKREHLAEVTLSVKADFPTPSISDFEIPTSNIRRIICSTSGGFPEPHLSWLENGEELNAINTTVSQDPETELYAVSSKLDFNMTTNHSFMCLIKYGHLRVNQTFNWNTTKQEHFPDNLLPSWAITLISVNGIFVICCLTYCFAPRCRERRRNERLRRESVRPV
31.1
